experiment: soluble on expression in E. coli; label from the status in PepcDB or PDB records

[
  {
    "entry sequence": "KKVCACPKILKPVCGSDGRTYANSCIARCNGVSIKSEGSCPTGI",
    "soluble on expression in E. coli": "soluble"
  },
  {
    "entry sequence": "MEKKIGFIGCGNMGKAILGGLIASGQVLPGQIWVYTPSPDKVAALHDQYGINAAQSAQEVAQVADIVFGAVKPGIMVKVLSEISSSLNKDSLVVSIAAGVTLDQLARALGHDRKIIRAMPNTPSLVNAGMTSVTPNALVTPEDTADVLNIFRCFGGAEVIAEPMIHPVVGVSGSSPAYVFMFIEAMADAAVLGGMPRAQAYKFAAQAVMGSAKMVLETGKHPGELKDMVCSPGGTTIEAVRVLEERGFRAAVIEAMTKCMEKSEALSKSLEHHHHHH",
    "soluble on expression in E. coli": "soluble"
  },
  {
    "entry sequence": "MNRTALVLGCLLVATPALAQSVTEKTGVNSVLGIAPTTPDFVKQVAISDMFEIQSNQLAERKGNAAQQAFAKQMIADHTKTSSELKAMVSDGKVKAELPTALDSAHQSKLDKLKNANGAEFSETFDEQQVSAHKDAVSLFERYAKGGDNDALKKWAGTTLPKLQHHLEMAQQLERDRTNTTSESKAKK",
    "soluble on expression in E. coli": "not soluble"
  },
  {
    "entry sequence": "MGSDKIHHHHHHMRLSNGDVIVFAGDSITDREKSNNAPLGYGYVNLFYNLMLAKHPETKITVINSGISGNTVIDLIDRWDDDVLSYKPNWISILIGINDLHKFLGGLTTFNPENYYENLRRLLKYTRKVLNNVNFILMTPFYISRNKLEGGFRAKVLELLPQYIEKVRLLSNEFSATYIDLHDTFKKLVNIREPNVYAPEPVHPNFTGHMVIALKLLEALEI",
    "soluble on expression in E. coli": "not soluble"
  }
]

###

assay: soluble on expression in E. coli; label from the status in PepcDB or PDB records
readout label: soluble on expression in E. coli

Illustrative cases are given below, each with its answer.
[
  {
    "entry sequence": "MGSDKIHHHHHHMNSSVKTRILQPLRIGKHIARHPIIQGAMAVRVSGAKLAGAVANAGGVGVIASLGLGLDSPYFDKRKKRSFFTANRLALIDELAKARSISPDGVIGVNILVATKDYSVLAQTAAAQGADIIITGAGLPLALPEYTAAYPDVALVPSVANLEAAQLICETWQSRYHRLPDALIVENCQQVGGHFTQCEQVNIPGFSLELVIRQLRDYCQNHLGARIPLIVSGGISDRTDIDRMIAIGADGVQIGTRFVTTVECDADQRYKDYHLQAQPEDIVTVPSPVGKPSRALHNLFTEQVMSNSSNLEKRCIANCLETCLCRDHGKTYCLLQALAQAARGDVENGLIFSGANAGYTQDIISVPELMTELTQAHTIEVSSSDKY",
    "soluble on expression in E. coli": "not soluble"
  },
  {
    "entry sequence": "MDNKIMLRNRYISKIQNKLRDLTDSINFLSEIDQAILNQTAGAGPGAAGPGAAPDRSSTINLQALREKLTTLNTDDGPTRTAIRDKTAAIQTSIRDINLKLEELMKNINTSAGKLADAVSAIPTPTDDLGAAGAAGAAGAAGAAAGAGAGAA",
    "soluble on expression in E. coli": "not soluble"
  },
  {
    "entry sequence": "MSLKWSITQLRKYQGKPFEFDQTVSFDNLKESLDLIDLSPITIQGQLTIKSTEVVADIHITGTYTMPCARTLVPVKVPLDVTTTEVFDLEGYNQYNDDQDDVDEHYHIIKDGMVNLQDIVEDIVIIEKPMRAYSEQSDQMLTVGNGWEVIDEDQLDELAKQQEQDDSESRQVDPRLQKLQQLYDKEQEGHHHHHH",
    "soluble on expression in E. coli": "soluble"
  },
  {
    "entry sequence": "GPGGSPGGLQKRHARVTVKYDRRELQRRLDVEKWIDGRLEELYRGREADMPDEVNIDELLELESEEERSRKIQGLLKSCTNPTENFVQELLVKLRGLHK",
    "soluble on expression in E. coli": "soluble"
  },
  {
    "entry sequence": "SETWSVEQVCSWLVEKNLGELVHRFQEEEVSGAALLALNDRMVQQLVKKIGHQAVLMDLIKKYKQNTQGLKSPENPKKAALVMQTEAARDYRDKESSSPARHGEQMPSFYPAENLDNGLIDQRVLKQRRNVKQILARSKALQWTKSYVLPEFPYDVKCMLAEQKCPDHSMRIRIIEFLQADMTKYLEGSLYPSTQQYNDVVNALLQAHPFLDEDGCGFAGV",
    "soluble on expression in E. coli": "soluble"
  },
  {
    "entry sequence": "MFGFPTATLLDCHGRYAQNVAFFNVMTEAHHKYDHSEATGSSSWDIQNSFRREKLEQKSPDSKTLQEDSPGVRQRVYECQECGKSFRQKGSLTLHERIHTGQKPFECTHCGKSFRAKGNLVTHQRIHTGEKPYQCKECGKSFSQRGSLAVHERLHTGQKPYECAICQRSFRNQSNLAVHRRVHSGEKPYRCDQCGKAFSQKGSLIVHIRVHTGLKPYACTQCRKSFHTRGNCILHGKIHTGETPYLCGQCGKSFTQRGSLAVHQRSCSQRLTL",
    "soluble on expression in E. coli": "soluble"
  }
]

Tell me the measured soluble on expression in E. coli of MDQGPINRPHFFFTTAPMPCPYLEGHLERKMVTDLTGPEAERLHESLSRAGFRRSHTIAYAPVCPGCTACVPVRIRARAFVKNKSFRRIVRANAGVTAEYVPARATVEQFHLFSQYQQARHGESDMALMGFFDYRSMVEDSPISTSIAEFREAGGELVAACLIDHLSDGLSAVYSFFNTTLPQSRGLGTWMILWMVDETVRRDLDHVYLGYWIAESSKMAYKERFQPLEVFGRRGWIAFDERGRPGLEHHHHHH , please.
not soluble

###

experiment: soluble on expression in E. coli; label from the status in PepcDB or PDB records

[
  {
    "entry sequence": "SLGRNWRSWRYAERADDLLISRGVLWREETVVPYGRMQLVEVTSGPVERHFGLASVQLHTAAAATDATIPGLDPAEAERLRDRLTELGEARSAG",
    "soluble on expression in E. coli": "soluble"
  },
  {
    "entry sequence": "GMTFEPYPFERLRALLKEITPKKRGLDLGIGEPQFETPKFIQDALKNHTHSLNIYPKSAFEESLRAAQRGFFKRRFKIELKENELISTLGSREVLFNFPSFVLFDYQNPTIAYPNPFYQIYEGAAKFIKAKSLLMPLTKENDFTPSLNEKELQEVDLVILNSPNNPTGRTLSLEELISWVKLALKHDFILINDECYSEIYENTPPPSLLEACMLAGNEAFKNVLVIHSLSKRSSAPGLRSGFIAGDSRLLEKYKAFRAYLGYTSANAIQKASEAAWLDDRHAEFFRNIYANNLKLARKIFKNTLIYPYSFYVYLPVQNGENFAKTLYQNEGIITLPALYLGRNRIGADYVRLALVYDTPLLEKPLEIIETYRENHA",
    "soluble on expression in E. coli": "soluble"
  }
]

###

assay: soluble on expression in E. coli; label from the status in PepcDB or PDB records
readout label: soluble on expression in E. coli

[
  {
    "entry sequence": "MGSDKIHHHHHHMSVMFDPQAAIYPFPPKPTPLNDDEKQFYREKIKRLLKERNAVMVAHYYTDPEIQQLAEETGGCISDSLEMARFGTKHAASTLLVAGVRFMGETAKILSPEKTILMPTLAAECSLDLGCPIDEFSAFCDAHPDRTVVVYANTSAAVKARADWVVTSSIAVELIEHLDSLGEKIIWAPDRHLGNYVQKQTGADVLCWQGACIVHDEFKTQALTRLKKIYPDAALLVHPESPQSIVEMADAVGSTSQLIKAAKTLPHRQLIVATDRGIFYKMQQAVPEKELLEAPTAGEGATCRSCAHCPWMAMNGLKAIAEGLEQGGAAHEIQVDAALREGALLPLNRMLDFAATLRA",
    "value": "not soluble"
  },
  {
    "entry sequence": "MAHHHHHHMFSSSTGAGAAAAAKPSAGPPSVALATVTVNEDPNIEVLLASKRIQKLTRATDALIARDFVLREEEAILDDLEAYIISLESEVRKAEFQTEELRSRSSLLRPGKRCAIAGENVELSALWNAYGSDMGYLVKRHSLRLAVLEKALATVSTRNPELPVPKPLPPPPVTKTSKTMSAMRDMSQRQKAPS",
    "value": "not soluble"
  },
  {
    "entry sequence": "MGSDKIHHHHHHMPLMPTTLCSHAGCNARAVGNGVCRIHKPKAKRQAPNQIKQAEPAKLKRIDHRLSASQRGYDVRWRSARLLFLNDEPLCRHCITQDITKGADVVDHILPHRGNQELFWDQTNWQPLCYPCHSIKTTTVDNKLSDYDIAQLRQGGWGKK",
    "value": "not soluble"
  }
]

Where these numbers come from: the DeepSol protein solubility set
